- Tested system: Adenosine receptor A2b (Homo sapiens)
- Protocol notes: Relative activation of human Adenosine A2B receptor at 10 uM treatment compared to 10 uM Cl-IB-MECA
- Assay type: functional
Documented Activation across a set of compounds

Compound: CNC(=O)[C@]12C[C@@H]1[C@@H](n1cnc3c(NCc4cccc(F)c4)nc(Cl)nc31)[C@H](O)[C@@H]2O
Unit symbol: %
Activation: 28
//
Compound: COc1ccc(Cl)cc1CNc1ncnc2c1ncn2[C@@H]1O[C@H](CO)[C@@H](O)[C@H]1O
Unit symbol: %
Activation: 57
//
Compound: CNC(=O)[C@]12C[C@@H]1[C@@H](n1cnc3c(NCc4cc(Cl)ccc4Cl)nc(Cl)nc31)[C@H](O)[C@@H]2O
Unit symbol: %
Activation: 32
//
Compound: CNC(=O)[C@H]1O[C@@H](n2cnc3c(NCc4cccc(I)c4)nc(Cl)nc32)[C@H](O)[C@@H]1O
Unit symbol: %
Activation: 0
//
Compound: CNC(=O)C12C[C@@H]1[C@@H](n1cnc3c(NCc4cccnc4)nc(Cl)nc31)[C@H](O)[C@@H]2O (single isomer, unassigned)
Unit symbol: %
Activation: 4
//
Compound: CNC(=O)[C@]12C[C@@H]1[C@@H](n1cnc3c(NCC(c4ccccc4)c4ccccc4)nc(Cl)nc31)[C@H](O)[C@@H]2O
Unit symbol: %
Activation: 46
//
Compound: CNc1ncnc2c1ncn2[C@@H]1O[C@H](CO)[C@@H](O)[C@H]1O
Unit symbol: %
Activation: 16
//
Compound: CNC(=O)[C@H]1O[C@@H](n2cnc3c(NCc4cccc(I)c4)ncnc32)[C@H](O)[C@@H]1O
Unit symbol: %
Activation: 0

----------
Recorded Ki by entry
- Tested system: Adenosine receptor A1 (Homo sapiens, UniProt P30542)
- Sequence (P30542 whole entry): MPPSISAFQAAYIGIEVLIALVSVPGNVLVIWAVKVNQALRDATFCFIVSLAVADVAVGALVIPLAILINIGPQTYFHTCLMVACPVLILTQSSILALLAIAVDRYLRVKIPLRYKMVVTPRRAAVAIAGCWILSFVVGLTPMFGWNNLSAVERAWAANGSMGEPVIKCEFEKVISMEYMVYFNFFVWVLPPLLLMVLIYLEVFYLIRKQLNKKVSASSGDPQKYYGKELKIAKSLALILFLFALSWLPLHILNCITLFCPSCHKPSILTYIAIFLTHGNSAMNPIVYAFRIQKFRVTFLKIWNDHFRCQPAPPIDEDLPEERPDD
Readout type: Ki (nM)

Smiles: CNC(=O)[C@]12C[C@@H]1[C@@H](n1cnc3c(NCc4cc(OC)ccc4OC)nc(Cl)nc31)[C@H](O)[C@@H]2O
Readout value: 1600
--
Smiles: CNC(=O)[C@]12C[C@@H]1[C@@H](n1cnc3c(NCc4cc(Cl)ccc4OCc4ccccc4)nc(Cl)nc31)[C@H](O)[C@@H]2O
Readout value: 1200
--
Smiles: CNc1ncnc2c1ncn2[C@@H]1O[C@H](CO)[C@@H](O)[C@H]1O
Readout value: 6000
--
Smiles: CNC(=O)[C@]12C[C@@H]1[C@@H](n1cnc3c(NCc4cccc(Br)c4)nc(Cl)nc31)[C@H](O)[C@@H]2O
Readout value: 270
--
Smiles: CNC(=O)[C@]12C[C@@H]1[C@@H](n1cnc3c(NCc4cccc(Cl)c4)nc(SC)nc31)[C@H](O)[C@@H]2O
Readout value: 610
--
Smiles: OC[C@H]1O[C@@H](n2cnc3c(NCc4cccc(I)c4)nc(Cl)nc32)[C@H](O)[C@@H]1O
Readout value: 17
--
Smiles: CNC(=O)[C@@]12C[C@@H]1[C@@H](n1cnc3c(NCc4cccc(Cl)c4)nc(Cl)nc31)[C@H](O)[C@@H]2O
Readout value: 260
--
Smiles: CNC(=O)[C@]12C[C@@H]1[C@@H](n1cnc3c(NCC(c4ccccc4)c4ccccc4)nc(Cl)nc31)[C@H](O)[C@@H]2O
Readout value: 1300
